Entry source: ChEMBL document CHEMBL3885881

Species: Rattus norvegicus
Test: DrugMatrix - Regimen: Daily Repeat
Assay type: toxicity, organism-based, Sprague-Dawley
Set-up: regimen Daily Repeat, gender Male, age 6-8 weeks
Details: in vivo, po, 1500 mg/kg, 72 h, tissue Plasma, route oral GAVAGE, dose level High, time 3 day, vehicle .5 % CMC
Kindly state POTASSIUM for each of the entries shown.
Answers are plain numbers, in MEQ/L.

Quick request: POTASSIUM for each listed item, please.
1. O=c1cnn([C@@H]2O[C@H](CO)[C@@H](O)[C@H]2O)c(=O)[nH]1
2. COC(=O)Nc1nc2ccc([S+]([O-])c3ccccc3)cc2[nH]1 (stereo not drawn)
3. CC(C)=CCC/C(C)=C/CO

[6.43, 6.25, 7.11]

====

Species on record: Rattus norvegicus
Test: DrugMatrix - Regimen: Daily Repeat
Type: toxicity, organism-based, Sprague-Dawley
Parameters: regimen Daily Repeat, gender Male, age 6-8 weeks
Settings: in vivo, po, 0 mg/kg, 120 h, tissue Plasma, route oral GAVAGE, dose level Control, time 5 day, vehicle .5 % CMC
measured_endpoint: LIPASE

| compound | LIPASE |
| --- | --- |
| Cn1c(=O)c2c(ncn2CC(O)CO)n(C)c1=O (centres undefined) [DYPHYLLINE] | 10.67 u/L |
| CN(C)[C@@H]1C(O)=C(C(N)=O)C(=O)[C@@]2(O)C(O)=C3C(=O)c4c(O)ccc(Cl)c4[C@@](C)(O)[C@H]3C[C@@H]12 [CHLORTETRACYCLINE] | 10.67 u/L |

Quick request: LIPASE for each listed item, please.
1. O=C1C(CC[S+]([O-])c2ccccc2)C(=O)N(c2ccccc2)N1c1ccccc1 (centres undefined) [SULFINPYRAZONE]
2. O=C1Nc2ccc(Cl)cc2C(c2ccccc2Cl)=NC1O (centres undefined) [LORAZEPAM]

9 u/L
9 u/L

====

Organism: Rattus norvegicus
Experiment: DrugMatrix - Regimen: Daily Repeat
Assay type: toxicity, organism-based, Sprague-Dawley
Set-up: regimen Daily Repeat, gender Male, age 6-8 weeks
Details: in vivo, po, 0 mg/kg, 120 h, tissue Plasma, route oral GAVAGE, dose level Control, time 5 day, vehicle 100 % WATER
Kindly state URIC ACID for each of the entries shown.
Give bare numbers, in mg/dL.

| molecule | reported_result |
| --- | --- |
| CN(C)CCOC(c1ccccc1)c1ccccc1 [DIPHENHYDRAMINE] | 1.42 |

Quick request: URIC ACID for each listed item, please.
1. Cc1ccc(NC(=O)c2ccc(CN3CCN(C)CC3)cc2)cc1Nc1nccc(-c2cccnc2)n1 [IMATINIB]
2. CN1[C@@H]2CC[C@H]1C[C@@H](OC(=O)C(CO)c1ccccc1)C2 (some centres undefined) [ATROPINE]
3. O.O.O.O.O.O.[Cl-].[Cl-].[Sr+2] [STRONTIUM CHLORIDE HEXAHYDRATE]
4. C[C@]12C=CC(=O)C=C1CC[C@@H]1[C@@H]2[C@@H](O)C[C@@]2(C)[C@H]1CC[C@]2(O)C(=O)CO [PREDNISOLONE]

1.78
0.52
1.78
1.63

Quick request: URIC ACID for each listed item, please.
1. CC(C)NCC(O)c1ccc(NS(C)(=O)=O)cc1 (centres undefined) [SOTALOL]
2. CC(C)(C)CC(C)(C)c1ccc(OCCOCC[N+](C)(C)Cc2ccccc2)cc1.[Cl-] [BENZETHONIUM CHLORIDE]
3. CCN(CC)CCNC(=O)c1cc(S(C)(=O)=O)ccc1OC [TIAPRIDE]

1: 1.77; 2: 1.42; 3: 1.78

In plain terms, Cn1c(=O)c2[nH]cnc2n(C)c1=O.O [THEOPHYLLINE] has a documented URIC ACID of 1.83

====

Species: Rattus norvegicus
Experiment: DrugMatrix - Regimen: Daily Repeat
Assay type: toxicity, organism-based, Sprague-Dawley
Parameters: regimen Daily Repeat, gender Male, age 6-8 weeks
Details: in vivo, po, 1500 mg/kg, 72 h, tissue Blood, route oral GAVAGE, dose level High, time 3 day, vehicle .5 % CMC
Kindly state ABSOLUTE EOSINOPHIL for each of the entries shown.
Give bare numbers, in CELLS/uL.

| compound | units_symbol | reported_result |
| --- | --- | --- |
| O=c1cnn([C@@H]2O[C@H](CO)[C@@H](O)[C@H]2O)c(=O)[nH]1 [6-AZAURIDINE] | CELLS/uL | 0 |
| CC(C)Oc1ccc2c(=O)c(-c3ccccc3)coc2c1 [IPRIFLAVONE] | CELLS/uL | 0 |

Quick request: ABSOLUTE EOSINOPHIL for each listed item, please.
1. COC(=O)Nc1nc2ccc([S+]([O-])c3ccccc3)cc2[nH]1 (centres undefined) [OXFENDAZOLE]
2. CN(C)[C@@H]1C(O)=C(C(N)=O)C(=O)[C@@]2(O)C(O)=C3C(=O)c4c(O)ccc(Cl)c4[C@@](C)(O)[C@H]3C[C@@H]12 [CHLORTETRACYCLINE]

[0, 19]

====

Kindly state CREATINE PHOSPHOKINASE for each of the entries shown.
Organism: Rattus norvegicus
Assay: DrugMatrix - Regimen: Daily Repeat
Assay type: toxicity, organism-based, Sprague-Dawley
Set-up: regimen Daily Repeat, gender Male, age 6-8 weeks
Conditions: in vivo, po, 2000 mg/kg, 120 h, tissue Plasma, route oral GAVAGE, dose level High, time 5 day, vehicle .5 % CMC
Give bare numbers, in u/L.

The following molecules have reported results that may help.
| molecule | reported_result |
| --- | --- |
| NC1CCN(c2nc3c(cc2F)c(=O)c(C(=O)O)cn3-c2ccc(F)cc2F)C1 (stereo not drawn) | 144.33 |
| CN(C/C=C/C#CC(C)(C)C)Cc1cccc2ccccc12 | 117.33 |

Attention now turns to another entry.
In plain terms, CN/C(=N/CCSCc1nc[nH]c1C)NC#N has a documented CREATINE PHOSPHOKINASE of 520.33

====

Kindly state CARBON DIOXIDE for each of the entries shown.
Species: Rattus norvegicus
Test: DrugMatrix - Regimen: Daily Repeat
Type: toxicity, organism-based, Sprague-Dawley
Design: regimen Daily Repeat, gender Male, age 6-8 weeks
Settings: in vivo, po, 1500 mg/kg, 72 h, tissue Plasma, route oral GAVAGE, dose level High, time 3 day, vehicle .5 % CMC
Numbers only, in mmol/L.

| compound | CARBON DIOXIDE (mmol/L) |
| --- | --- |
| O=c1cnn([C@@H]2O[C@H](CO)[C@@H](O)[C@H]2O)c(=O)[nH]1 [6-AZAURIDINE] | 18.67 |
| CC(C)Oc1ccc2c(=O)c(-c3ccccc3)coc2c1 [IPRIFLAVONE] | 27 |

In plain terms, COC(=O)Nc1nc2ccc([S+]([O-])c3ccccc3)cc2[nH]1 (stereo not drawn) [OXFENDAZOLE] has a documented CARBON DIOXIDE of 27.33

====

Species on record: Rattus norvegicus
Test: DrugMatrix - Regimen: Daily Repeat
Assay type: toxicity, organism-based, Sprague-Dawley
Set-up: regimen Daily Repeat, gender Male, age 6-8 weeks
Conditions: in vivo, po, 0 mg/kg, 72 h, tissue Plasma, route oral GAVAGE, dose level Control, time 3 day, vehicle .5 % CMC
measured_endpoint: CARBON DIOXIDE (mmol/L)
One number for each entry, in mmol/L.

The following compounds have reported results that may help.
| compound | reported_result |
| --- | --- |
| O=C1CN=C(c2ccccc2Cl)c2cc([N+](=O)[O-])ccc2N1 [CLONAZEPAM] | 29.5 |
| COc1cc2nc(N3CCN(C(=O)c4ccco4)CC3)nc(N)c2cc1OC [PRAZOSIN] | 25 |
| Cn1c(=O)c2c(ncn2CC(O)CO)n(C)c1=O (centres undefined) [DYPHYLLINE] | 24.83 |

Attention now turns to another entry.
In plain terms, C[C@H]1O[C@@H](n2cc(F)c(=O)[nH]c2=O)[C@H](O)[C@@H]1O [DOXIFLURIDINE] has a documented CARBON DIOXIDE of 29.5

====

Species on record: Rattus norvegicus
Assay: DrugMatrix - Regimen: Daily Repeat
Format: toxicity, organism-based, Sprague-Dawley
Design: regimen Daily Repeat, gender Male, age 6-8 weeks
Conditions: in vivo, po, 0 mg/kg, 72 h, tissue Blood, route oral GAVAGE, dose level Control, time 3 day, vehicle .5 % CMC
Kindly state MONOCYTE for each of the entries shown.
Answer format reminder: number followed by unit.

| molecule | measured_endpoint | reported_result |
| --- | --- | --- |
| CNCCC(Oc1ccc(C(F)(F)F)cc1)c1ccccc1 (stereo not drawn) | MONOCYTE | 1.67% |
| CC(=O)Oc1ccc(C(c2ccc(OC(C)=O)cc2)c2ccccn2)cc1 | MONOCYTE | 3.33% |

Attention now turns to another entry.
In plain terms, COc1cc2nc(N3CCN(C(=O)c4ccco4)CC3)nc(N)c2cc1OC has a documented MONOCYTE of 1.17%
